Exercise: for every item that follows, state its recorded protein stability index.
B1: POLD4 (parent)
chain: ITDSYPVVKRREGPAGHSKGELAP

- Variants of: B1
- PROCEDURE_SUMMARY: protein stability index of a GFP-peptide fusion (GPS, HEK-293T) (PSI 1-6); higher = more stable;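 also: lentivirally expressed fusions sorted by FACS into six bins by GFP to DsRed ratio, PSI derived from sequencing read proportions per bin multiplied by bin number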
- MEASUREMENT_PARAMETERS: c terminus: a fixed tail appended
One number for each entry.

MUTATION_LABEL	ENDPOINT_NAME	RECORDED_VALUE
K19Y	protein stability index	3.06
S4D	protein stability index	5.06
R10D	protein stability index	4.98
P24E	protein stability index	3.66

Give me protein stability index for each of these variants, listed below.
1. G20M
2. L22Y
3. A15L
4. A15V
5. T2M
6. G16E
7. A15P
8. P14H

Completion:
1. 3.49
2. 2.52
3. 3.32
4. 3.23
5. 3.78
6. 3.83
7. 3.03
8. 3.84

Look up protein stability index for the entries below, preserving their order.
1. V8R
2. L22Q
3. H17V
4. K19F
5. S18W
6. Y5T
7. V8P
8. V7P

Completion:
[2.88, 3.89, 3.2, 2.48, 2.8, 3.5, 4.35, 5.22]

Record protein stability index for all entries; do not skip any.
1. L22T
2. I1C
3. K9E
4. A23P
5. G20T
6. E21R
7. G13W
8. G13Y

Completion:
3.21
4.11
4.83
2.96
2.67
2.13
2.5
3.11

Quick request: protein stability index for each listed item, please.
1. P24L
2. P24I
3. P24Y
4. A23K
5. E21M
6. L22W
7. E12P
8. K9T

Completion:
1. 3.56
2. 1.97
3. 2.38
4. 3.65
5. 2.6
6. 3.04
7. 3.26
8. 4.71

Need protein stability index for each of these variants.
1. L22S
2. L22H
3. V8D
4. K19E

Completion:
1. 3.27
2. 3.2
3. 5.21
4. 3.28

These data points were gathered from the supplement of paper PMC10567573.
